- TARGET_OR_TEST_SYSTEM: CaLsb1
- PROCEDURE_TEXT: SPOT peptide array binding signal intensity (averaged, normalized) (arbitrary units (background-subtracted, floor 0; scale differs between SH3 domains)); higher = stronger binding of the SH3 domain to the peptide
The reader will find reported SPOT peptide array binding signal intensity values listed item by item below.
Please reply with the number alone, leaving off any unit.

Recorded SPOT peptide array binding signal intensity, per entry:
NHSRSLFSLPGNQQS :: 2
TKRKRPARLIFYDSK :: 1.5
NFFRKKLGIPRKLKR :: 1
KDKKTKPTPPPKPSH :: 1
NMLKKKPLKKPLKRF :: 4.5

Exam item: Determine from records and report SPOT peptide array binding signal intensity for SNRRPVPRRPSQPLN
Marked response: 2

Exam item: Determine from records and report SPOT peptide array binding signal intensity for QQNRPLPQLPNRNNR
Marked response: 1.5

Exam item: Determine from records and report SPOT peptide array binding signal intensity for YHSRRHPLALGFKYV
Marked response: 1.75

Exam item: Determine from records and report SPOT peptide array binding signal intensity for SSSSTPPTLPPRRIE
Marked response: 57.5

Exam item: Determine from records and report SPOT peptide array binding signal intensity for KDKSRPPRPPPKPLH
Marked response: 0.5

Exam item: Determine from records and report SPOT peptide array binding signal intensity for KNPRRQLQIPRQQPS
Marked response: 0.5

Exam item: Determine from records and report SPOT peptide array binding signal intensity for GSKSGPPPRPKKPST
Marked response: 0.5

Exam item: Determine from records and report SPOT peptide array binding signal intensity for PPPPPPPPPPLPQSL
Marked response: 0.5
